Molecular target: T1, EpCAM (UniProt P16422 P16422:24-265)
T1 sequence: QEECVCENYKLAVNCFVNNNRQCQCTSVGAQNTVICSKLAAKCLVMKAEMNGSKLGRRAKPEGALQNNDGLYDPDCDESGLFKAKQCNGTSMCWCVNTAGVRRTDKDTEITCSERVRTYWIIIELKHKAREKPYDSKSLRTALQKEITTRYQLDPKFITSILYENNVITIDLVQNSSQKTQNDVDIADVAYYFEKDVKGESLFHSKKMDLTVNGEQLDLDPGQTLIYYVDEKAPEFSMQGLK
Assay: SPR; immobilized biotinylated aptamer, HBS-EP+ buffer, global fit
Conditions: label: biotin
Description: FIG. 4 illustrates results from a binding assay showing the binding affinity of an exemplary aptamer (Aptamer ID BTX176881 (SEQ ID NO. 98883)) to the target EpCAM protein at various target concentrations. The aptamer to be tested is fixed to a substrate using a biotin tail and is incubated with various concentrations of target (125, 250 and 500 nM). The test is performed on a surface plasmon resonance machine (SPR). […]
endpoint.label: pKd
Quick note: pKd values are minus log10 of concentrations in mol/L.

Request: # input binder: CCGCGCAGATATACAACGTACCTCTGTGCGCA (ssDNA, 3' tail of 6 thymines and biotin) [BTX176881] ; wanted: its pKd
Result: 8.08
